Here's a roundup of IC50 values tested on Glucocorticoid receptor (Homo sapiens, UniProt P04150), taken from various published works.

Reported Glucocorticoid receptor (Homo sapiens, UniProt P04150) IC50 for item Cc1cc(C#N)ccc1C1SC(C)(C)CNc2c1c(C)nn2C (centres unmarked) was 0.1 to 1 µM

Reported Glucocorticoid receptor (Homo sapiens, UniProt P04150) IC50 for item CC#C[C@@]1(O)CC[C@@]2(CC)c3cc4cnn(-c5ccc(F)cc5)c4cc3CCC[C@@H]2C1 was < 0.1 µM

Reported Glucocorticoid receptor (Homo sapiens, UniProt P04150) IC50 for item N#CC[C@]1(O)CC[C@]2(Cc3ncccn3)c3cc4cnn(-c5ccc(F)cc5)c4cc3CCC[C@@H]2C1 was < 0.1 µM

Reported Glucocorticoid receptor (Homo sapiens, UniProt P04150) IC50 for item OC[C@]12CC[C@@](O)(C(F)(F)F)C[C@@H]1CCCc1cc3c(cnn3-c3ccc(F)cc3)cc12 was < 0.1 µM

Reported Glucocorticoid receptor (Homo sapiens, UniProt P04150) IC50 for item CCOC(=O)CC(=O)NCC(c1ccccc1)C(c1ccccc1)c1ccccc1 (centres unmarked) was 0.937 µM

Reported Glucocorticoid receptor (Homo sapiens, UniProt P04150) IC50 for item CC(=O)NC[C@]12CC[C@@](O)(C(F)(F)F)C[C@@H]1CCCc1cc3c(cnn3-c3ccc(F)cc3)cc12 (single isomer, unassigned) was 0.1 to 1 µM

Reported Glucocorticoid receptor (Homo sapiens, UniProt P04150) IC50 for item Cc1nn(CC(O)C(F)(F)F)c2c1C(c1ccc(Cl)cc1Cl)SC(C)(C)CN2 (single isomer, unassigned) was 1 to 10 µM

Reported Glucocorticoid receptor (Homo sapiens, UniProt P04150) IC50 for item Cn1nc(-c2ccccn2)c2c1N(CC(=O)O)CCSC2c1ccc(Cl)cc1Cl (centres unmarked) was 1 to 10 µM

---

Here's a roundup of pIC50 values tested on Glucocorticoid receptor (Homo sapiens), taken from various published works.
pIC50: −log10 of the molar value.

get_value(item= CC[C@@]12CC[C@](O)(C(F)(F)F)C[C@H]1CC[C@H](O)c1cc3c(cnn3-c3ccc(F)cc3)cc12 (single isomer, unassigned) , readout=pIC50) returns > 7.00

get_value(item= Cc1ccc(-c2nn(C)c3c2C(c2ccc(Cl)cc2Cl)SCCN3)cc1 (stereo not shown) , readout=pIC50) returns 6.00 to 7.00

get_value(item= CCn1nc(-c2ccccn2)c2c1N[C@H](C)CS[C@@H]2c1ccc(CCCO)cc1C (single isomer, unassigned) , readout=pIC50) returns 6.00 to 7.00

get_value(item= O=C(CCCc1cccs1)NCC(c1ccccc1)C(c1ccccc1)c1ccccc1 (stereo not shown) , readout=pIC50) returns 6.30

get_value(item= Cc1ncccc1NC(=O)c1ccc2c(c1)CCC[C@H]1C[C@@](O)(CO)CC[C@@]21Cc1ccccc1 (racemic) , readout=pIC50) returns 6.00 to 7.00

get_value(item= Cc1ncccc1NC(=O)c1ccc2c(c1)CCC[C@H]1C[C@](C)(O)CC[C@@]21Cc1ccccc1 (racemic) , readout=pIC50) returns > 7.00

get_value(item= COc1ccc2c(c1)CCCC1=CC(=O)CCC12Cc1ccccc1 (stereo not shown) , readout=pIC50) returns 6.00 to 7.00

---

Here's a roundup of IC50 values tested on Glucocorticoid receptor (Homo sapiens, UniProt P04150), taken from various published works.

get_value(item= O=C(Cc1cccs1)NCC(c1ccccc1)C(c1ccc(F)cc1)c1ccc(F)cc1 (stereo not shown) , readout=IC50) returns 8 nM

get_value(item= CC[C@@]12CC[C@](O)(c3ccccc3)C[C@@H]1CCOc1cc(C(=O)Nc3cccnc3C)ccc12 (racemic) , readout=IC50) returns < 100 nM

get_value(item= Cc1ncccc1NC(=O)c1ccc2c(c1)CCC[C@H]1C[C@](O)(C(F)(F)F)CC[C@]21Cc1ccccc1 , readout=IC50) returns 100 to 1000 nM

get_value(item= CC[C@]12C[C@H](O)[C@@](O)(c3ccccc3)C[C@H]1CCCc1cc(C(=O)Nc3cccnc3C)ccc12 (single isomer, unassigned) , readout=IC50) returns < 100 nM

get_value(item= Cc1nn(C)c2c1C(c1ccc(Br)cc1Cl)SC(C)(C)CN2 (stereo not shown) , readout=IC50) returns < 100 nM

get_value(item= Cc1nn(C)c2c1C(c1cc[nH]n1)SCCN2 (stereo not shown) , readout=IC50) returns > 10000 nM

get_value(item= CC[C@@]12C[C@@H](O)[C@](O)(c3ccccc3)C[C@@H]1CCOc1cc(C(=O)Nc3cccnc3C)ccc12 (racemic) , readout=IC50) returns 100 to 1000 nM

---

Here's a roundup of pIC50 values tested on Glucocorticoid receptor (Homo sapiens), taken from various published works.
pIC50: −log10 of the molar value.

get_value(item= CCCC(=O)NCC1(c2ccccc2)CC1(c1ccccc1)c1ccccc1 (centres unmarked) , readout=pIC50) returns 6.24

get_value(item= O=C(CCc1ccccc1Cl)NCC(c1ccccc1)C(c1ccccc1)c1ccccc1 (centres unmarked) , readout=pIC50) returns 6.99

get_value(item= O=S(=O)(NCC(c1ccccc1)C(c1ccccc1)c1ccccc1)c1cccs1 (centres unmarked) , readout=pIC50) returns 6.82

get_value(item= CC[C@]12CC[C@@](O)(C(F)(F)F)[C@H](O)[C@H]1CCCc1cc3c(cnn3-c3ccc(F)cc3)cc12 (single isomer, unassigned) , readout=pIC50) returns > 7.00

get_value(item= CC[C@]12CC[C@@](O)(CC3CC3)C[C@H]1CCCc1cc(C(=O)Nc3cccnc3C)ccc12 , readout=pIC50) returns 6.00 to 7.00

get_value(item= Cn1nc(-c2ccccn2)c2c1NCCSC2c1ccc(-c2cnn(C3CCCCO3)c2)cc1Cl (centres unmarked) , readout=pIC50) returns 6.00 to 7.00

get_value(item= CC[C@@]12CC[C@](O)(COC)C[C@@H]1CCCc1cc3c(cnn3-c3ccnc(C)c3)cc12 (racemic) , readout=pIC50) returns > 7.00

get_value(item= CC[C@@]12CC[C@](O)(C(F)(F)F)C[C@H]1CCCc1c2cc2cnn(-c3ccc(F)cc3)c2c1C , readout=pIC50) returns > 7.00

get_value(item= C=C(C)CC(O)(C(Nc1cccc2c(=O)[nH]ccc12)c1cc(Br)ccc1O)C(F)(F)F (centres unmarked) , readout=pIC50) returns 7.19

get_value(item= O=C1CC[C@@]2(Cc3ccccc3)c3ccc(O)cc3CCC[C@H]2C1.O=C1CC[C@]2(Cc3ccccc3)c3ccc(O)cc3CCC[C@@H]2C1 , readout=pIC50) returns 6.00 to 7.00

get_value(item= Cc1ncccc1NC(=O)c1ccc2c(c1)CCC[C@@H]1C[C@](C)(O)CC[C@@]21Cc1ccccc1 (single isomer, unassigned) , readout=pIC50) returns > 7.00

get_value(item= Cn1nc(-c2ccc(C(C)(C)C)cc2)c2c1NCCSC2c1ccc(Cl)cc1Cl (centres unmarked) , readout=pIC50) returns 5.00 to 6.00

get_value(item= COc1ccc([C@@H](Oc2ccc3c(cnn3-c3cccc(C(=O)Nc4cccnc4)c3)c2)[C@H](C)NC(=O)C(C)(F)F)cn1 , readout=pIC50) returns 9.07

get_value(item= Cc1ccc(Oc2ccc(C3SCCNc4c3c(C)nn4C)cc2)cc1 (centres unmarked) , readout=pIC50) returns 5.00 to 6.00

get_value(item= Cc1ncccc1NC(=O)c1ccc2c(c1)C(=O)OC[C@@H]1C[C@@](O)(C(F)(F)F)CC[C@@]21Cc1ccccc1 , readout=pIC50) returns 6.00 to 7.00

get_value(item= CC[C@@]1(O)CC[C@@]2(Cc3ccccc3)c3ccc(C(=O)Nc4ccc(C)nc4C)cc3CCC[C@H]2C1 , readout=pIC50) returns > 7.00

get_value(item= C[C@H](NC(=O)C(C)(F)F)[C@H](Oc1ccc2c(cnn2-c2cccc(C(=O)NCCO)c2)c1)c1ccccc1 , readout=pIC50) returns 8.77

get_value(item= CC[C@]12CC[C@](O)(C(F)(F)F)C[C@H]1CCCc1c2cc2cnn(-c3ccc(F)cc3)c2c1Br , readout=pIC50) returns 6.00 to 7.00

get_value(item= CCOC[C@@]1(O)CC[C@]2(CC)c3cc4cnn(-c5ccc(F)cc5)c4cc3CCC[C@H]2C1 (single isomer, unassigned) , readout=pIC50) returns 6.00 to 7.00

get_value(item= Cc1cc(C#N)ccc1[C@H]1S[C@@H](C)CNc2c1c(C1CC1)nn2C (racemic) , readout=pIC50) returns > 7.00

get_value(item= O=C(Cc1ccccc1)NCC1(c2ccccc2)CC1(c1ccccc1)c1ccccc1 (centres unmarked) , readout=pIC50) returns 5.92

get_value(item= C[C@]1(O)CC[C@]2(CC3CC3)c3cc4cnn(-c5ccc(F)cc5)c4cc3CCC[C@@H]2C1 , readout=pIC50) returns > 7.00

get_value(item= Cc1ccc(C(=O)NCC2(c3ccccc3)CC2(c2ccccc2)c2ccccc2)s1 (centres unmarked) , readout=pIC50) returns 6.38

get_value(item= Cc1ncccc1NC(=O)c1ccc2c(c1)CN(C)C[C@@H]1C[C@@](O)(C(F)(F)F)CC[C@@]21Cc1ccccc1 , readout=pIC50) returns 6.00 to 7.00

get_value(item= O=C(NCc1ccc(Cl)cc1Cl)NCC(c1ccccc1)C(c1ccccc1)c1ccccc1 (centres unmarked) , readout=pIC50) returns 6.92

get_value(item= CC[C@]12CC[C@](C)(O)C[C@H]1CCOc1cc3c(cnn3-c3ccnc(C)c3)cc12 , readout=pIC50) returns 6.00 to 7.00

get_value(item= COc1ccccc1CCC(=O)NCC(c1ccccc1)C1c2ccccc2CCc2ccccc21 (centres unmarked) , readout=pIC50) returns 6.41

get_value(item= CC[C@]12CC[C@](O)(C(F)(F)F)C[C@@H]1CCCc1nc3c(cnn3-c3ccc(F)cc3)cc12 (racemic) , readout=pIC50) returns 5.00 to 6.00

get_value(item= CC[C@@]12CC[C@](O)(COC)C[C@@H]1CCOc1cc3c(cnn3-c3ccnc(C)c3)cc12 (single isomer, unassigned) , readout=pIC50) returns > 7.00
